The reported measurements were obtained from patent US20240208968A1.

- assayed_system: αvβ6 (Homo sapiens, UniProt P06756+P18564)
- Sequence (P06756 31-992 limits assumed): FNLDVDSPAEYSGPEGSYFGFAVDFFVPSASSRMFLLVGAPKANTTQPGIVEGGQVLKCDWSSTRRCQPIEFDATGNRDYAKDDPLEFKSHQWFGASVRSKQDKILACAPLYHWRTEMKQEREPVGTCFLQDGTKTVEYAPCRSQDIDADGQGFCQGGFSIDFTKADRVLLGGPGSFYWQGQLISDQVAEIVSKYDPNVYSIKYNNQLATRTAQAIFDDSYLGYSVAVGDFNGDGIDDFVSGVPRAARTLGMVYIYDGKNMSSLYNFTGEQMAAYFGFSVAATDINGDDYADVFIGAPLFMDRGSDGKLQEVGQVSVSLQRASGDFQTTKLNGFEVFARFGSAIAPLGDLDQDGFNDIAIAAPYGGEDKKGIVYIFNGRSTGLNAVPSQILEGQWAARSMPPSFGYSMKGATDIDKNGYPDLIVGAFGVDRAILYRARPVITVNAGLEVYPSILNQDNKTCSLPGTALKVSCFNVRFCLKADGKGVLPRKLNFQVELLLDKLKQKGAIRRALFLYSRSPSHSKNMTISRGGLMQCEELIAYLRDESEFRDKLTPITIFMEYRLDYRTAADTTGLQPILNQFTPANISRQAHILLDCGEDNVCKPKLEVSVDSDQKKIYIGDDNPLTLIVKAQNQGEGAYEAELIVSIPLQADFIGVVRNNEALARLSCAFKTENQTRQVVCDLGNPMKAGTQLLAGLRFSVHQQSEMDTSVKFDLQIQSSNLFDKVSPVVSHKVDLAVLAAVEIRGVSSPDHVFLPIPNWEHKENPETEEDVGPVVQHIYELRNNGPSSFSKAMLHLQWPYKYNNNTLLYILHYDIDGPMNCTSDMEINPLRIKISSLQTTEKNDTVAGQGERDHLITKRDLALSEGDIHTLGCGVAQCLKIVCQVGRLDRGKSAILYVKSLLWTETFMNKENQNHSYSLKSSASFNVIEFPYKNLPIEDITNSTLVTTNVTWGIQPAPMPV
- Sequence (P18564 22-707 limits assumed): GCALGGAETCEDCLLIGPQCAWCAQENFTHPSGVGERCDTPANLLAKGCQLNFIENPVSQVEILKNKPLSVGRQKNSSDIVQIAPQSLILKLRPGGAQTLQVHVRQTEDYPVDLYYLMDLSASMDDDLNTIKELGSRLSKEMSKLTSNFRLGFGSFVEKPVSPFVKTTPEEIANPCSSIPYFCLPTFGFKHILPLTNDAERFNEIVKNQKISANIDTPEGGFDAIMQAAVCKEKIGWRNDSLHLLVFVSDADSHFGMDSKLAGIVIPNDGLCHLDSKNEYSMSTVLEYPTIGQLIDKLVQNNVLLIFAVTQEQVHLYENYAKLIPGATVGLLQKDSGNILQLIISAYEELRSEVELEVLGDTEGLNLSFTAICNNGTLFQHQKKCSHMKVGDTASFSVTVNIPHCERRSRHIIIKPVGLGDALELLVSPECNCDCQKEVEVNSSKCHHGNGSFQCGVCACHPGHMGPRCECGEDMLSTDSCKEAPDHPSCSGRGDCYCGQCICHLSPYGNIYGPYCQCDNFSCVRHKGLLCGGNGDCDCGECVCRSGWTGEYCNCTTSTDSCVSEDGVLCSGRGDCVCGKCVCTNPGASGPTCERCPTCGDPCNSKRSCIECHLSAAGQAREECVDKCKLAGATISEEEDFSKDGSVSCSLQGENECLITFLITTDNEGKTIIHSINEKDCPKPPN
- assay_method_text: Solid Phase Integrin αvβ6 Assay
The following compounds are shown together with reported IC50 values.
measured_endpoint: IC50

- O=C(O)[C@@H](CO[C@@H]1CCCN(Cc2ccc3c(n2)NCCC3)C1)c1ccccc1: > 1000 nM
- Cc1cc(C)n(-c2cccc([C@@H](CO[C@@H]3CCCN(CCCc4ccc5c(n4)NCCC5)C3)CC(=O)O)c2)n1: < 100 nM
- CN1CCc2ccc(S(=O)(=O)N3CCC[C@@H](C(=O)N[C@@H](CNC(=O)[C@@H]4CCCN(CCCc5ccc6c(n5)NCCC6)C4)C(=O)O)C3)cc21: < 100 nM
- O=C(NC[C@H](Nc1ncnc2cc(F)c(F)cc12)C(=O)O)[C@@H]1CCCN(CCCc2ccc3c(n2)NCCC3)C1: < 100 nM
- O=C(NC[C@H](C(=O)O)c1cccc(Oc2ccccc2)c1)[C@@H]1CCCN(CCCc2ccc3c(n2)NCCC3)C1: < 100 nM
- CC1(C)COCCN1c1cccc([C@H](CC(=O)O)NC(=O)[C@@H]2CCCN(CCCc3ccc4c(n3)NCCC4)C2)c1: < 100 nM
- O=C(N[C@@H](CNC(=O)[C@@H]1CCCN(CCCc2ccc3c(n2)NCCC3)C1)C(=O)O)c1cccc(Cl)c1Cl: < 100 nM
- O=C(O)C[C@@H](CC(=O)N[C@@H]1CCN(CCCCc2ccc3c(n2)NCCC3)C1)c1ccccc1: > 1000 nM
- CN1CCc2cc(S(=O)(=O)N[C@H](CNC(=O)[C@@H]3CCCN(CCCc4ccc5c(n4)NCCC5)C3)C(=O)O)ccc21: 100 to 1000 nM
- O=C(O)C[C@H](CC(=O)N[C@@H]1CCN(C(=O)CCCc2ccc3c(n2)NCCC3)C1)c1ccccc1: > 1000 nM
- O=C(NC[C@@H](Nc1cc(-c2ccccc2)ncn1)C(=O)O)[C@@H]1CCCN(CCCc2ccc3c(n2)NCCC3)C1: < 100 nM
- O=C(CC[C@@H](C(=O)O)c1ccccc1)N[C@@H]1CCN(C(=O)CCCc2ccc3c(n2)NCCC3)C1: > 1000 nM
- O=C(O)[C@@H](CCO[C@@H]1CCCN(CCCc2ccc3c(n2)NCCC3)C1)c1cccc2nn(CC3CC3)cc12: < 100 nM
- O=C(O)[C@H](CO[C@@H]1CCCN(CCCCc2ccc3c(n2)NCCC3)C1)Nc1ncnc2ccccc12: < 100 nM

----------
- assayed_system: αvβ1 (Homo sapiens, UniProt P05556+P06756)
- Sequence (P06756 31-992 limits assumed): as the sequence (P06756 31-992 limits assumed) above
- Sequence (P05556 21-728 limits assumed): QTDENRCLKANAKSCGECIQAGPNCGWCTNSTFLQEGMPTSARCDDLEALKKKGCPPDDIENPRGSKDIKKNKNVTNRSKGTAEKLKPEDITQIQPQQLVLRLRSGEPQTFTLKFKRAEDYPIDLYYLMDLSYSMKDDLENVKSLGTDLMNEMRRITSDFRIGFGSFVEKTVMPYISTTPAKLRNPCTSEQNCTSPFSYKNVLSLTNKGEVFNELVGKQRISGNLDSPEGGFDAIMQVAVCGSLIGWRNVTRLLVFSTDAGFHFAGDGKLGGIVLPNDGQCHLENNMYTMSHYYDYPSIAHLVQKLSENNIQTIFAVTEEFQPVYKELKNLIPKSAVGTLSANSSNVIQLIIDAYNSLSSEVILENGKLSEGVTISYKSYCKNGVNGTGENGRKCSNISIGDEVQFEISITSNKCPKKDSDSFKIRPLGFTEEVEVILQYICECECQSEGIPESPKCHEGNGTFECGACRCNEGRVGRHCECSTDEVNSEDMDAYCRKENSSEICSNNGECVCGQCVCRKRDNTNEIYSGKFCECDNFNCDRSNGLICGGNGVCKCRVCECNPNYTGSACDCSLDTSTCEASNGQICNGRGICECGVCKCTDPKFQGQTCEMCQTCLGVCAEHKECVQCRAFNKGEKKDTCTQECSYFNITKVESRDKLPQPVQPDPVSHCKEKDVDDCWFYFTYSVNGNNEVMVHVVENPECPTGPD
- assay_method_text: Solid Phase Integrin αvβ1 Assay
- Type: binding
measured_endpoint: IC50

• Cc1csc2ncnc(N[C@H](CCO[C@@H]3CCCN(CCCc4ccc5c(n4)NCCC5)C3)C(=O)O)c12 = < 100 nM
• O=C(O)C[C@@H](CO[C@@H]1CCCN(CCCc2ccc3c(n2)NCCC3)C1)c1ccc(-c2ccccc2)cc1 = > 1000 nM
• O=C(O)[C@@H](CCO[C@@H]1CCCN(CCCc2ccc3c(n2)NCCC3)C1)c1ccc(C2CC2)cc1 = > 1000 nM
• CC1(C)CN(c2cccc([C@H](CC(=O)O)NC(=O)[C@@H]3CCCN(CCCc4ccc5c(n4)NCCC5)C3)c2)CC(C)(C)C1 = < 100 nM
• O=C(CC[C@@H](C(=O)O)c1ccccc1)N[C@@H]1CCN(CCCCc2ccc3c(n2)NCCC3)C1 = > 1000 nM
• O=C(O)C[C@@H](CC(=O)N[C@H]1CCN(C(=O)CCCc2ccc3c(n2)NCCC3)C1)c1ccccc1 = < 100 nM
• O=C(CC[C@@H](NC(=O)[C@@H]1CCCN1S(=O)(=O)c1ccccc1)C(=O)O)N[C@H]1CCN(C(=O)CCCc2ccc3c(n2)NCCC3)C1 = < 100 nM
• O=C(O)C[C@H](NC(=O)[C@@H]1CCCN(CCCc2ccc3c(n2)NCCC3)C1)c1ccc2nccnc2c1 = < 100 nM
• O=C(O)[C@H](CCO[C@@H]1CCCN(CCCCc2ccc3c(n2)NCCC3)C1)NC(=O)C12CCC(CC1)CC2 = < 100 nM
• O=C(NC[C@@H](C(=O)O)c1cccc2c1CCC2)[C@@H]1CCCN(CCCc2ccc3c(n2)NCCC3)C1 = < 100 nM
• O=C(NC[C@H](Nc1ncnc2c(C(F)(F)F)cccc12)C(=O)O)[C@@H]1CCCN(CCCc2ccc3c(n2)NCCC3)C1 = < 100 nM
• O=C(N[C@@H](CNC(=O)[C@@H]1CCCN(CCCc2ccc3c(n2)NCCC3)C1)C(=O)O)c1cc(Cl)cc(Cl)c1 = < 100 nM
• O=C(NC[C@H](C(=O)O)c1cccc2c1CCCC2)[C@@H]1CCCN(CCCc2ccc3c(n2)NCCC3)C1 = < 100 nM
• O=C(O)[C@@H](CCO[C@@H]1CCCN(CCCc2ccc3c(n2)NCCC3)C1)Nc1ncnc2ccccc12 = > 1000 nM
• O=C(NC[C@H](Nc1ncnc2ccsc12)C(=O)O)[C@@H]1CCCN(CCCc2ccc3c(n2)NCCC3)C1 = < 100 nM
• O=C(NC[C@H](C(=O)O)c1cccc(N2C[C@@H]3CC[C@H]2CO3)c1)[C@@H]1CCCN(CCCc2ccc3c(n2)NCCC3)C1 = < 100 nM
• O=C(CC[C@H](C(=O)O)c1ccccc1)N[C@@H]1CCN(C(=O)CCCc2ccc3c(n2)NCCC3)C1 = > 1000 nM
• C[C@@H]1C[C@@H](C(=O)NC[C@@H](C(=O)O)c2cccc(-c3ccccc3)c2)CN(CCCc2ccc3c(n2)NCCC3)C1 = 100 to 1000 nM
• O=C(O)C[C@H](NC[C@@H]1CCCN(CCCc2ccc3c(n2)NCCC3)C1)c1cccc(Br)c1 = > 1000 nM
• C[C@H]1C[C@@H](C(=O)NC[C@@H](C(=O)O)c2cccc(-c3ccccc3)c2)CN(CCCc2ccc3c(n2)NCCC3)C1 = > 1000 nM
• C[C@H]1C[C@@H](C(=O)N[C@@H](CC(=O)O)c2ccccc2)CN(CCCc2ccc3c(n2)NCCC3)C1 = 100 to 1000 nM
• O=C(NC[C@H](C(=O)O)c1cnc2[nH]ccc2c1)[C@@H]1CCCN(CCCc2ccc3c(n2)NCCC3)C1 = < 100 nM
• C[C@@H]1C[C@@H](C(=O)NC[C@@H](C(=O)O)c2ccc3ccccc3c2)CN(CCCc2ccc3c(n2)NCCC3)C1 = 100 to 1000 nM
• C[C@H]1C[C@H](C(=O)NC[C@H](C(=O)O)c2ccc3ccccc3c2)CN(CCCc2ccc3c(n2)NCCC3)C1 = 100 to 1000 nM
• O=C(O)[C@@](O)(CO[C@@H]1CCCN(CCCCc2ccc3c(n2)NCCC3)C1)c1ccccc1 = > 1000 nM
• CN1CCc2cc(S(=O)(=O)N[C@@H](CNC(=O)[C@@H]3CCCN(CCCc4ccc5c(n4)NCCC5)C3)C(=O)O)ccc21 = 100 to 1000 nM
• Cc1cc(C)n(-c2cccc([C@@H](CNC(=O)[C@@H]3CCCN(CCCc4ccc5c(n4)NCCC5)C3)C(=O)O)c2)n1 = < 100 nM
